# EXPERIMENTAL SYSTEM: human TPST1 (Homo sapiens, UniProt O60507)
# Construct: human TPST1 (residues Lys43–Leu360) and TPST2 (residues Gly43–Leu359) enzymes lacking the transmembrane domains; made in house; host or cells: E. coli BL21 (DE3) pLysS
# Sequence (O60507 43-360): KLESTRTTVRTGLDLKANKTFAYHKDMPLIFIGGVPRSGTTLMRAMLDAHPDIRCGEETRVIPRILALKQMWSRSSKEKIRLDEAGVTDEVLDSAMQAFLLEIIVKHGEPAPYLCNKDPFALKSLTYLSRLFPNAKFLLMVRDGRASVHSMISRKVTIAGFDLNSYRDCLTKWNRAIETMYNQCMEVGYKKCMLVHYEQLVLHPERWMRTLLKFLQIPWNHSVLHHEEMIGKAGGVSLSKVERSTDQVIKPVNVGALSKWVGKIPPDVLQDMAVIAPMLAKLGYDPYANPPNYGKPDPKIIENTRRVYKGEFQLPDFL
# PROTOCOL: EZ Reader II microfluidic mobility-shift CC4-tide sulfation assay, TPST1
# Format: biochemical
# TEST PARAMETERS: Fig 5A; CC4-tide, 10 µM PAPS, 0.1 µM TPST1, absence of MgCl2; read-out: IC50 TPST1, panel of nucleotides
READOUT LABEL: pIC50
Hey, just a heads up that pIC50 is the negative log base 10 of the concentration in molar.

**Q:** GET /values?readout=pIC50&item= Nc1ncnc2c1ncn2C1OC(COP(=O)(O)O)C(OP(=O)(O)O)C1O (stereo not drawn) [PAP, adenosine 3′–5′-diphosphate]
**A:** 5.82

**Q:** Give the measured pIC50 of `CC(C)(COP(=O)(O)OP(=O)(O)OC[C@H]1O[C@@H](n2cnc3c(N)ncnc32)[C@H](O)[C@@H]1O)[C@@H](O)C(=O)NCCC(=O)NCCS` .
**A:** 3.78

**Q:** Could you tell me which pIC50 is on file for Nc1ncnc2c1ncn2[C@@H]1O[C@H](COP(=O)(O)OP(=O)(O)OP(=O)(O)O)[C@@H](O)[C@H]1O [ATP, adenosine 5′-triphosphate] ?
**A:** 3.42
